Numbers sourced from paper PMC2909451.

Below, each entry is listed alongside its reported pKi.
test-target: human organic cation/carnitine transporter (SLC22A5, OCTN2) (Homo sapiens, UniProt O76082)
Sequence (O76082 whole entry): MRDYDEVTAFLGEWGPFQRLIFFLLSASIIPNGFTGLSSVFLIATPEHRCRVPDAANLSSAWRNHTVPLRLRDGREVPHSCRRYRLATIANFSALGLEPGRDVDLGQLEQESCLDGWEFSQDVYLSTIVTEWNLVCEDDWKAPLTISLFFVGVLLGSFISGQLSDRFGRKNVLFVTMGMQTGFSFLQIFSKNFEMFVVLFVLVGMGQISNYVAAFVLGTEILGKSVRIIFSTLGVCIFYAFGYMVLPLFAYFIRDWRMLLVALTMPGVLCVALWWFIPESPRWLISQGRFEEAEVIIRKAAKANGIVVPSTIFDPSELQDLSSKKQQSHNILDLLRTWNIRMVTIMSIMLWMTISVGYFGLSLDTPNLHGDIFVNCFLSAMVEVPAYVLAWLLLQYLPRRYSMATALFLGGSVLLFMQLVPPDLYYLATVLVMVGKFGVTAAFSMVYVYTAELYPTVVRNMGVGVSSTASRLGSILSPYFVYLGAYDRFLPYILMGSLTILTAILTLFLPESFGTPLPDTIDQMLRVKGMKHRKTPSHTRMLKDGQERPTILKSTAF
method: OCTN2 cis-inhibition of L-carnitine uptake in OCTN2-MDCK cells
Type: cell-based
test-settings: Ki, inhibitor concentration range 0-10 μM
pKi: −log10 of the molar value. Counter-ions that a name gives are not always drawn.

{"molecule": "CC[C@]1(O)C[C@H]2CN(CCc3c([nH]c4ccccc34)[C@@](C(=O)OC)(c3cc4c(cc3OC)N(C=O)[C@H]3[C@@](O)(C(=O)OC)[C@H](OC(C)=O)[C@]5(CC)C=CCN6CC[C@]43[C@@H]65)C2)C1 [Vincristine sulfate]", "pKi": 4.83}
{"molecule": "C[N+](C)(C)C[C@@H](O)CC(=O)[O-]", "pKi": 4.94}
